- Test System: PLK4 (h) (Homo sapiens, UniProt O00444)
- Sequence (O00444 whole entry): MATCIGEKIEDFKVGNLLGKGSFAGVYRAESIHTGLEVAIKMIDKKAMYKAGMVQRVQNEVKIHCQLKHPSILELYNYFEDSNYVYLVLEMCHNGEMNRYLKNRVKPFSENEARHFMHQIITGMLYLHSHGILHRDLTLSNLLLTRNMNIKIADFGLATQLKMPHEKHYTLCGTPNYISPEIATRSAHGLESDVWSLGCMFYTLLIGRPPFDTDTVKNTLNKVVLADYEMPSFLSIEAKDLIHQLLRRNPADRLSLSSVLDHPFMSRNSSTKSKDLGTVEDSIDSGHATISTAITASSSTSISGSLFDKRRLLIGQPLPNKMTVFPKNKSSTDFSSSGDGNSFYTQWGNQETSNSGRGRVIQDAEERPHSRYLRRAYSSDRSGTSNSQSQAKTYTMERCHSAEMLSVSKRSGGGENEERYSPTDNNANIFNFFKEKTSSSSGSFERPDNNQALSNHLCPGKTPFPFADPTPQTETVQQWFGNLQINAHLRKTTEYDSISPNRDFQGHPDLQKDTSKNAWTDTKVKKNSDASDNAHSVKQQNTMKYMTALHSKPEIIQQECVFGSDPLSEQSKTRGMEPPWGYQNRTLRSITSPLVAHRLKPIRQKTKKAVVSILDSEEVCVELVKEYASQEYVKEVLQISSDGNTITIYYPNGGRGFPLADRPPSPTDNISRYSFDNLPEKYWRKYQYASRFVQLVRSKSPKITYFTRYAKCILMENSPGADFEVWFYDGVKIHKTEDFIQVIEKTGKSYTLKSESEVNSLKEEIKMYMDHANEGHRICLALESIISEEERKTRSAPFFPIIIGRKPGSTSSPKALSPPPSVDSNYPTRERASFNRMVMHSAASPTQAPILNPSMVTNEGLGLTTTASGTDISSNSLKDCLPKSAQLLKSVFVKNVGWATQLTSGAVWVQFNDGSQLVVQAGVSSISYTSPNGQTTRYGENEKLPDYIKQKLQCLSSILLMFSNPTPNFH
- Protocol Notes: PLK-4 human kinase scintillation proximity assay (SPA)
- Format: biochemical
- Condition Notes: 1 μM ATP, 60 minutes at r.t., read-out: PLK4 pIC50 (converted)
Quantity Name: IC50 (nM)

[a] COc1ccc2cc1OCC(=O)NCN(C)CCCc1c[nH]c3ncnc(c13)N2
[b] CCOCCOc1ccc2cc1OCC(=O)N(C)CCCN(C)Cc1cn(C)c3ncnc(c13)N2
[c] COc1ccc2cc1OCCCCC(=O)N(C)CCN(C)Cc1c[nH]c3ncnc(c13)N2
Inquiry: Order the entries above from lowest to highest IC50. Arrange the labels as the request states and list them.
Reply text: b, c, a

[P] CN1CCCN(C)C(=O)CCc2cc(ccc2N2CCOCC2)Nc2ncnc3[nH]cc(c23)C1
[Q] COc1ccc2cc1OCC(=O)N(C1CCCCC1)CCCN(C)Cc1c[nH]c3ncnc(c13)N2
Inquiry: // which entry has the larger IC50 value, P or Q ? Reply with the label of the item you choose.
Reply text: P

[A] COc1cc2cc(c1OC)OCC(=O)N(C)CCCN(C)Cc1c[nH]c3ncnc(c13)N2
[B] COc1ccc2cc1OCC(=O)N(C)CCCNCc1c[nH]c3ncnc(c13)N2
Inquiry: Which record shows the lower IC50: the first, A , or the second, B ? Reply with the label of the item you choose.
Reply text: B
(B: 79.4 nM, A: 3980 nM)

[a] CN1CCCN(C)C(=O)COc2cc(ccc2Br)Nc2ncnc3[nH]cc(c23)C1
[b] CN1CCCN(C)C(=O)COc2cc(ccc2OCCN2CCOCC2)Nc2ncnc3[nH]cc(c23)C1
Inquiry: // which entry has the larger IC50 value, a or b ? Reply with the label of the item you choose.
Reply text: b
(b: 501 nM, a: 63.1 nM)

[I] COc1ccc2cc1OCC(=O)N(C(C)C)CCCN(C)Cc1c[nH]c3ncnc(c13)N2
[II] CN1CCN(C)C(=O)CCCCOc2cc(ccc2Cl)Nc2ncnc3[nH]cc(c23)C1
Inquiry: // which entry has the larger IC50 value, I or II ? Reply with the label of the item you choose.
Reply text: II

[a] CN1CCN(C)C(=O)CCCOc2cc(ccc2Cl)Nc2ncnc3[nH]cc(c23)C1
[b] COCCCOc1ccc2cc1OCC(=O)N(C)CCCN(C)Cc1c[nH]c3ncnc(c13)N2
[c] CN1CCCN(C)C(=O)COc2cc(ccc2OC2CCOCC2)Nc2ncnc3[nH]cc(c23)C1
Inquiry: Reorder the items by IC50, least to greatest. Arrange the labels as the request states and list them.
Reply text: b, c, a
(b: 79.4 nM, c: 200 nM, a: 794 nM)
